The reported numbers originate from PubChem BioAssay (NCATS).

target: DNA dC->dU-editing enzyme APOBEC-3G (Homo sapiens); assay: qHTS for inhibitors of Vif-A3G interactions: Validation (AID 588379); settings: Vif-A3G protein interaction assay; series mostly up to 46.1 µM
Active and inactive are the calls of the source. The call rests on the fitted dose curve; in most records, active means well fitted inhibition curve with a large enough effect; inconclusive means small, poorly fitted or top-dose-only effect; inactive means flat fitted curve, though single readings scatter.

[
  {
    "Molecule": "COc1ccc(CC2NCC(O)C2OC(C)=O)cc1 (stereo not drawn)",
    "outcome": "inactive"
  },
  {
    "Molecule": "Oc1cc2c(cc1O)[C@H]1c3ccccc3CN[C@H]1CC2",
    "outcome": "inactive"
  },
  {
    "Molecule": "CC1CCC2C(C)C(=O)OC3OC4(C)CCC1C32OO4 (stereo not drawn)",
    "outcome": "inactive"
  }
]
